Target: human recombinant HDAC6 (Homo sapiens, UniProt Q9UBN7)
Construct: purchased Calbiochem Inc. 382180
Sequence (Q9UBN7 whole entry): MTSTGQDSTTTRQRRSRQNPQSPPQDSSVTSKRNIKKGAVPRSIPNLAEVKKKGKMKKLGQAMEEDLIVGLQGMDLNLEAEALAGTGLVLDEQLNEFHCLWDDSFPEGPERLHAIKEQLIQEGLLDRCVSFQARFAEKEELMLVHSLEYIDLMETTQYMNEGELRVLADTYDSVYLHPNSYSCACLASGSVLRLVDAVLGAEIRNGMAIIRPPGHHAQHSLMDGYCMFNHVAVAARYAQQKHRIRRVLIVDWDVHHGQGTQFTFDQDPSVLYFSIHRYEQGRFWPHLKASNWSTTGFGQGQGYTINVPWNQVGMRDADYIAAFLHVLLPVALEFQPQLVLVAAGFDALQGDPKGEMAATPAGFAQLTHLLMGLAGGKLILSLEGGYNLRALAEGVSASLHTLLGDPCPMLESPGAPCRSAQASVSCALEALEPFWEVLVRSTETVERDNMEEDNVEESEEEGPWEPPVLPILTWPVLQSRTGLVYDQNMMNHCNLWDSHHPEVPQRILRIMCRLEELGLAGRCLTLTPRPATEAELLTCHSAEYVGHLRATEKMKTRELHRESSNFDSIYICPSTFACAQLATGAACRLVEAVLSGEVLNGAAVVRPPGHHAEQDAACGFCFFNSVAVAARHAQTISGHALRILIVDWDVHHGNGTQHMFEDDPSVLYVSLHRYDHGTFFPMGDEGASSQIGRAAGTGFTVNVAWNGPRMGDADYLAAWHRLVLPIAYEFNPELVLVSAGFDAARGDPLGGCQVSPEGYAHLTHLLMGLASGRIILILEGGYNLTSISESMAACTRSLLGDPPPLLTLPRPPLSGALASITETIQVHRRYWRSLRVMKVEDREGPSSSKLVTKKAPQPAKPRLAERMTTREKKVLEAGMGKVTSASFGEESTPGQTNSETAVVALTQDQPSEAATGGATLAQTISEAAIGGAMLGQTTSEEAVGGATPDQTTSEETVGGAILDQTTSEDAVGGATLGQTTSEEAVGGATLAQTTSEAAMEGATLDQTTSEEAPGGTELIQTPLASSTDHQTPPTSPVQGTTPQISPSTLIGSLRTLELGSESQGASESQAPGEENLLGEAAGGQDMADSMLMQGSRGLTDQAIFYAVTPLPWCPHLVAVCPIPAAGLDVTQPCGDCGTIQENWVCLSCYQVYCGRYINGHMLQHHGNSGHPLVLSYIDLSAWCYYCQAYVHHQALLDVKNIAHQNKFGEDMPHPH
Experiment: HDAC6 enzyme activity inhibition (HDAC Fluorimetric Drug Discovery Kit)
Type: biochemical
Conditions: human recombinant HDAC6, same protocol as HDAC1
pIC50: −log10 of the molar value.
READOUT TYPE: pIC50

STRUCTURE: CN(C)[C@H]1CCN(Cc2ccc(-c3cn(Cc4ccc(-c5nnc(C(F)F)o5)cc4F)nn3)cc2)C1
TESTED SYSTEM: human recombinant HDAC6 (Homo sapiens, UniProt Q9UBN7)
pIC50: 7.67
--
STRUCTURE: CN1CCN(c2cccc(-c3cn(Cc4ccc(-c5nnc(C(F)F)o5)cc4F)nn3)c2F)CC1
TESTED SYSTEM: human recombinant HDAC6 (Homo sapiens, UniProt Q9UBN7)
pIC50: 7.76
--
STRUCTURE: FC(F)c1nnc(-c2ccc(Cn3cc(-c4ccc(CNC5CCC5)cc4)nn3)nc2)o1
TESTED SYSTEM: human recombinant HDAC6 (Homo sapiens, UniProt Q9UBN7)
pIC50: 8.08
--
STRUCTURE: Fc1cc(-c2nnc(C(F)F)o2)ccc1Cn1cc(-c2cccc(N3CCN(CC4(F)CC4)CC3)c2F)nn1
TESTED SYSTEM: human recombinant HDAC6 (Homo sapiens, UniProt Q9UBN7)
pIC50: 6.80
--
STRUCTURE: Fc1cc(-c2nnc(C(F)F)o2)ccc1Cn1cc(-c2ccc(CN3CC4(COC4)C3)cc2)nn1
TESTED SYSTEM: human recombinant HDAC6 (Homo sapiens, UniProt Q9UBN7)
pIC50: 7.95

A: Fc1cc(-c2nnc(C(F)F)o2)ccc1Cn1cc(-c2cccc3c2OC(F)(F)O3)nn1
B: CN(C)[C@@H]1CCN(Cc2ccc(-c3cn(Cc4ccc(-c5nnc(C(F)F)o5)cc4F)nn3)cc2)C1
C: FC(F)c1nnc(-c2ccc(Cn3cc(-c4ccc(CN5CCC5)cc4)nn3)nc2)o1
D: CN(C)Cc1ccc(-c2cn(Cc3ccc(-c4nnc(C(F)F)o4)cc3F)nn2)nc1
E: Fc1cc(-c2nnc(C(F)F)o2)cnc1Cn1cc(-c2ccc3cn[nH]c3c2)nn1
Arrange these compounds by their pIC50, starting with the largest number. Thanks in advance for listing the labels in the requested order. C, B, D, E, A
(C: 8.07, B: 7.68, D: 7.42, E: 7.22, A: 7.01)

I: Fc1cc(-c2nnc(C(F)F)o2)ccc1Cn1cc(-c2csc(CN3CCCC3)c2)nn1
II: NC1(C(=O)Nc2cccc(-c3cn(Cc4ccc(-c5nnc(C(F)F)o5)cn4)nn3)c2)CCC1
Just curious, which one has the larger pIC50 reading, I or II ? Mark your answer with the label of the selected entry. II
